- Experimental system: cloned human P2Y1 receptors (Homo sapiens (Human))
- Sequence (P47900 whole entry): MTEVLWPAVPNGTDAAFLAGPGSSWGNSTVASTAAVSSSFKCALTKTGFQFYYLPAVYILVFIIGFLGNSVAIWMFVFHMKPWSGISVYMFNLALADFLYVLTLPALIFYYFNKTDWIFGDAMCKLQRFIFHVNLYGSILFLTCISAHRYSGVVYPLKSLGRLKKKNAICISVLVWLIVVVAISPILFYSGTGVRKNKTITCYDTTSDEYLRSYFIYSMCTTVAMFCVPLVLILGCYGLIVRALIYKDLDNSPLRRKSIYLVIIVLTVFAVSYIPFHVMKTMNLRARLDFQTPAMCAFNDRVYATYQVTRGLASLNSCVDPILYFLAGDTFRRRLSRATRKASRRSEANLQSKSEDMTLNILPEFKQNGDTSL
- Procedure text: Binding Assay B: Scintillation Proximity Assay (SPA) for P2Y1 binding
- Protocol conditions: SPA, [33P] 2MeS-ADP displacement; read-out: P2Y1 Ki (nM) using binding assay B
Readout label: Ki (nM)
Field format: number, assumed nM, no unit text.

Here are 5 compounds together with their reported answers.
Mol smiles | Test value
COc1ccc2nc(NC(=O)Nc3ccccc3N3CC4(CCN(CC(C)(C)C)CC4)c4c(F)ccc(O)c43)sc2c1 | 7.9
CC(C)(C)CN1CCC2(CC1)CN(c1ccccc1NC(=O)Nc1ccc(OC(F)(F)F)cc1)c1c(O)cc(F)c(-c3ccc(C(F)(F)F)nc3)c12 | 199
CC(C)(C)CN1CCC2(CC1)CN(c1ccccc1NC(=O)Nc1nc3ccc(Cl)nc3s1)c1c(O)ccc(F)c12 | 8.6
COc1ccc2nc(NC(=O)Nc3ccccc3N3CC4(CCN(CC(C)(C)C)CC4)c4c(-c5nc6cc(Cl)ccc6s5)ccc(O)c43)sc2c1 | 33.4
COC(=O)c1ccc2nc(NC(=O)Nc3ccccc3N3CC4(CCN(CC(C)(C)C)CC4)c4c(Cl)ccc(O)c43)sc2c1 | 7.2

Item "CC(C)(C)CN1CCC2(CC1)CN(c1ccccc1NC(=O)Nc1nc3ccc(Cl)cc3s1)c1c(O)ccc(-c3nc4cccc(Cl)c4s3)c12" has what recorded Ki?
51.5
